assaySummary: Cytotoxicity against human HEK293 cells assessed as inhibition of cell growth
Format: toxicity, cell-based
experimentalReadout: IC50 (µM)
The reply should contain only the number, in µM.

O=C1C2C=CC=CC2=NC2/C(=N\Nc3nc(-c4ccc(Br)cc4)cs3)c3ccccc3N12 (centres undefined)
73.3
O=C1C2C=CC=CC2=NC2/C(=N\Nc3nc(-c4ccc(Cl)cc4)cs3)c3ccccc3N12 (centres undefined)
80.9
N#Cc1ccc(-c2csc(N/N=C3/c4ccccc4N4C(=O)C5C=CC=CC5=NC34)n2)cc1 (centres undefined)
92.3

API: the following record is the query input.
Recorded result, O=C1C2C=CC=CC2=NC2/C(=N\Nc3nc(-c4ccc(F)cc4)cs3)c3ccccc3N12 (centres undefined) , IC50: 86.1

---

assaySummary: Antiproliferative activity against mouse MC3T3-E1 cells
Format: toxicity, cell-based
pIC50: −log10 of the molar value.
# Lookup of reported pIC50 keyed by entry

O=C1c2cc(F)ccc2-n2c1nc1ccc(F)c(Cl)c1c2=O
4.05
O=C1c2ccccc2-n2c1nc1ccc(Cl)c(Cl)c1c2=O
< 4.00
O=C1c2ccccc2-n2c1nc1cc(Cl)ccc1c2=O
< 4.00
O=C1c2cc(Cl)ccc2-n2c1nc1ccccc1c2=O
< 4.00
O=C1c2c(ccc(F)c2Cl)-n2c1nc1ccc(F)c(Cl)c1c2=O
4.17

Recorded result, O=C1c2cc(Cl)ccc2-n2c1nc1ccc(F)c(Cl)c1c2=O , pIC50: < 4.00

Recorded result, O=C1c2cc(Cl)ccc2-n2c1nc1ccc(Cl)c(Cl)c1c2=O , pIC50: < 4.00

Recorded result, O=C1c2c(ccc(F)c2Cl)-n2c1nc1cc(Cl)ccc1c2=O , pIC50: 4.09

Recorded result, O=C1c2cc(Cl)ccc2-n2c1nc1cc(Cl)ccc1c2=O , pIC50: < 4.00

Recorded result, O=C1c2c(ccc(Cl)c2Cl)-n2c1nc1ccc(F)c(Cl)c1c2=O , pIC50: 4.17

Recorded result, O=C1c2cc(F)ccc2-n2c1nc1ccccc1c2=O , pIC50: 4.01

Recorded result, O=C1c2cc(F)ccc2-n2c1nc1cc(Cl)ccc1c2=O , pIC50: < 4.00

Recorded result, O=C1c2ccccc2-n2c1nc1ccc(F)c(Cl)c1c2=O , pIC50: < 4.00

Recorded result, O=C1c2ccccc2-n2c1nc1ccccc1c2=O , pIC50: < 4.00

---

Tested on: A498
assaySummary: Growth inhibition of human A498 cells assessed as reduction in cell viability
Assay type: functional
experimentalReadout: GI50 (µM)
The reply should contain only the number, in µM.

Answered examples (2):
O=C1c2cc3ccccc3cc2-n2c1nc1ccccc1c2=O
60
Nc1ccc2c(c1)C(=O)c1nc3ccccc3c(=O)n1-2
2

API: the following record is the query input.
Recorded result, O=C1c2cc([N+](=O)[O-])ccc2-n2c1nc1ccccc1c2=O , GI50: 3

---

Tested on: A549/CDDP
assaySummary: Antiproliferative activity against human A549/DDP cells assessed as inhibition of cell viability
Assay type: functional, cell-based
experimentalReadout: pIC50
In simple prose, pIC50 is minus the logarithm base ten of a concentration in moles per litre.

O=C(CCCCN(Cc1ccccn1)Cc1ccccn1)Nc1ccc2c(c1)C(=O)c1nc3ccccc3c(=O)n1-2
4.28

Recorded result, COc1cc(/C=C/C(=O)CC(=O)/C=C/c2ccc(O)c(OC)c2)ccc1O , pIC50: 4.17

---

# Lookup of reported IC50 keyed by entry
Test system: A498
assaySummary: Cytotoxicity against human A498 cells measured after 3 days by MTT assay
Assay type: functional, cell-based
experimentalConditions: A498, 72 h
The reply should contain only the number, in nM.

Recorded result, N/N=C1/c2cc(F)ccc2-n2c1nc1ccccc1c2=O , IC50: 1260

Recorded result, O=C1c2cc(I)ccc2-n2c1nc1ccccc1c2=O , IC50: 1860

---

Test system: HCT-116
assaySummary: Antiproliferative activity against human HCT-116 cells measured after 48 hrs
Type: functional, cell-based
experimentalConditions: HCT-116, 48 h
experimentalReadout: IC50

Recorded result, O=C1c2c(N3CCCCC3)cccc2-n2c1nc1ccccc1c2=O , IC50: > 100 µM

Recorded result, O=C1c2cc(Cl)c(N3CCCCC3)cc2-n2c1nc1ccccc1c2=O , IC50: > 100 µM

Recorded result, O=C1c2c(N3CCNCC3)cccc2-n2c1nc1ccccc1c2=O , IC50: 90 µM

Recorded result, O=C1c2c(N3CCOCC3)cccc2-n2c1nc1ccccc1c2=O , IC50: 1.62 µM

Recorded result, O=C1c2c(ccc(F)c2N2CCN(c3ccccn3)CC2)-n2c1nc1ccccc1c2=O , IC50: > 100 µM

Recorded result, CCN(CC)c1cc2c(cc1Cl)C(=O)c1nc3ccccc3c(=O)n1-2 , IC50: 1.29 µM

Recorded result, O=C1c2c(ccc(F)c2N2CCCCC2)-n2c1nc1ccccc1c2=O , IC50: 64.2 µM

Recorded result, O=C1c2c(ccc(F)c2N2CCN(C(=O)c3ccco3)CC2)-n2c1nc1ccccc1c2=O , IC50: > 100 µM

Recorded result, CN(C)c1cccc2c1C(=O)c1nc3ccccc3c(=O)n1-2 , IC50: > 100 µM

Recorded result, O=C1c2c(ccc(F)c2N2CCN(CCO)CC2)-n2c1nc1ccccc1c2=O , IC50: > 100 µM

Recorded result, O=C1c2c(ccc(F)c2N2CCOCC2)-n2c1nc1ccccc1c2=O , IC50: > 100 µM

Recorded result, O=C1c2c(N3CCN(c4ccccn4)CC3)cccc2-n2c1nc1ccccc1c2=O , IC50: > 100 µM

---

assaySummary: Antiproliferative activity against human HL7702 cells assessed as inhibition of cell growth
Type: toxicity, cell-based
experimentalConditions: HL7702 (L02) cells
# Lookup of reported pIC50 keyed by entry
In simple prose, pIC50 is minus the logarithm base ten of a concentration in moles per litre.

Answered examples (2):
O=C1c2cc(Br)ccc2-n2c1nc1ccccc1c2=O
4.30
O=C1c2cc(I)ccc2-n2c1nc1ccccc1c2=O
4.03

API: the following record is the query input.
Recorded result, O=C1c2ccccc2-n2c1nc1ccccc1c2=O , pIC50: 4.05

---

Tested on: A549
assaySummary: Antiproliferative activity against human A549 cells incubated by 48 hrs by MTT assay
Format: functional, cell-based
experimentalConditions: A549, 48 h
experimentalReadout: IC50 (µM)
The reply should contain only the number, in µM.

O=C1c2cc([N+](=O)[O-])ccc2-n2c1nc1ccccc1c2=O
6.88
O=C1c2ccccc2-n2c1nc1ccc(F)cc1c2=O
2.34
O=C1c2cc(F)c(F)cc2-n2c1nc1ccccc1c2=O
2.15
O=C1c2cccc(F)c2-n2c1nc1ccccc1c2=O
6.45
O=C1c2ccccc2-n2c1nc1cccc(F)c1c2=O
5.45
O=C1c2cc(Cl)ccc2-n2c1nc1ccccc1c2=O
4.21

Recorded result, O=C1c2cc(F)ccc2-n2c1nc1ccccc1c2=O , IC50: 2.36

Recorded result, O=C1c2ccccc2-n2c1nc1ccccc1c2=O , IC50: 8.25

---

Tested on: MOLT-4
assaySummary: Anticancer activity against human MOLT-4 cells measured after 48 hrs
Type: functional, cell-based
experimentalConditions: MOLT-4, 48 h
experimentalReadout: IC50 (µM)
The reply should contain only the number, in µM.

Recorded result, O=C1c2cc(Br)ccc2-n2c1nc1ccccc1c2=O , IC50: 8

---

assaySummary: Cytotoxicity activity against human HDF cells
Format: toxicity, cell-based
experimentalConditions: HDF cells (NHDF)
experimentalReadout: IC50

Answered examples (4):
Cc1nn(Br)c2c1[C@@]1(C(C#N)=CO2)c2cc(-c3cccc(Cl)c3)ccc2-n2c1nc1ccccc1c2=O
> 100 µM
Cc1nn(Cl)c2c1[C@@]1(C(C#N)=C(N)O2)c2cc(-c3ccccc3)ccc2-n2c1nc1ccccc1c2=O
> 100 µM
Cc1nn(Br)c2c1[C@@]1(C(C#N)=CO2)c2cc(-c3ccccc3)ccc2-n2c1nc1ccccc1c2=O
> 100 µM
Cc1n[nH]c2c1[C@@]1(C(C#N)=C(N)O2)c2cc(-c3ccccc3)ccc2-n2c1nc1ccccc1c2=O
> 100 µM

API: the following record is the query input.
Recorded result, Cc1nn(Cl)c2c1[C@@]1(C(C#N)=C(N)O2)c2ccccc2-n2c1nc1ccccc1c2=O , IC50: > 100 µM

---

Test system: A549
assaySummary: Antiproliferative activity against human A549 cells assessed as inhibition of cell growth
Assay type: functional, cell-based
experimentalReadout: pIC50
In simple prose, pIC50 is minus the logarithm base ten of a concentration in moles per litre.

Answered examples (3):
O=c1c2ccccc2nc2n1-c1ccccc1/C2=N/N=c1/scc(-c2ccc(Br)cc2)n1-c1ccccc1
4.19
O=C1C2C=CC=CC2=NC2/C(=N\Nc3nc(-c4ccc(Br)cc4)cs3)c3ccccc3N12 (stereo unspecified)
4.77
COc1ccc(-c2cs/c(=N/N=C3/c4ccccc4-n4c3nc3ccccc3c4=O)n2-c2ccccc2)cc1
4.20

API: the following record is the query input.
Noted pIC50 for O=c1c2ccccc2nc2n1-c1ccccc1/C2=N/N=c1/scc(-c2ccc([N+](=O)[O-])cc2)n1-c1ccccc1 , tested on A549: 4.28
